Consider the following compounds; for each one, report its pIC50.
molecular target: Human immunodeficiency virus type 1 protease (Human immunodeficiency virus 1)
Answers are plain numbers, as −log10 of the molar value.

[
  {
    "compound": "CC(C)CN1CC(O)(CNC(=O)[C@@H]2N[C@@H]([C@H](NC(=O)Cc3ccccc3)C(=O)NCc3ccccc3)SC2(C)C)C[C@H]1C(=O)NC(C)(C)C (stereo not given in full)",
    "assay endpoint": "pIC50",
    "experimental value": 7.52
  }
]

Hi team, please reply with pIC50 for each item in this list.
1. CC(C)CN1CC(O)(CNC(=O)[C@H]2N[C@@H]([C@H](NC(=O)Cc3ccccc3)C(=O)NCc3ccccc3)SC2(C)C)C[C@H]1C(=O)NC(C)(C)C (stereo not given in full)
2. CC(C)CN1C[C@](O)([C@H](CC2CCCCC2)NC(=O)CC(C)(C)C)C[C@H]1C(=O)NC(C)(C)C

1. 7.15
2. 5.05
